Target: IL-17A/F (Homo sapiens, UniProt Q16552+Q96PD4)
Experiment: IL-17A/F HEK-Blue cell assay (SEAP reporter)
Settings: HEK-Blue IL-17A reporter cells, IL17A/F 5 ng/mL, 20 hours, SEAP read at A630; read-out: HEK-Blue IL17AF (IC50 for IL-17A/F inhibition)
pIC50: −log10 of the molar value.
measure: pIC50

molecule	pIC50
CC(C)c1nocc1C(=O)N[C@H](c1cn2nc(CC3C[C@@H](C(F)(F)F)CNC3=O)cnc2n1)C1CCC(F)(F)CC1 (stereo partly drawn) [Compound 8]	< 6.00
O=C(N[C@H](c1cn2nc(CC3C[C@@H](C(F)(F)F)CNC3=O)c(N3CCOCC3)nc2n1)C1CCC(F)(F)CC1)c1conc1C1CC1(F)F (single isomer, unassigned) [Compound 113]	6.00 to 7.00
CC(C)n1nccc1C(=O)N[C@H](c1cn2nc(CC3C[C@@H](C(F)(F)F)CNC3=O)c(N3CC4CC(C3)O4)nc2n1)[C@@H]1CCCC(F)(F)C1 (single isomer, unassigned) [Compound 129]	6.00 to 7.00
CCn1nccc1C(=O)N[C@H](c1cn2nc(C[C@H]3C[C@H](C)CNC3=O)c(C(C)C)nc2n1)C1CCC(F)(F)CC1 [Compound 391]	< 6.00
O=C(N[C@H](c1cn2nc(CC3C[C@@H](C(F)(F)F)CNC3=O)cnc2n1)C1CCC(F)(F)CC1)c1conc1CCF (stereo partly drawn) [Compound 7]	< 6.00

**Query** Note pIC50 for the molecule shown: CCn1nccc1C(=O)N[C@H](c1cn2nc(CC3C[C@@H](C(F)(F)F)CNC3=O)c(N3C[C@@H]4C[C@H]3CO4)nc2n1)[C@H]1CC[C@H](C)CC1 (single isomer, unassigned) [Compound 109]
**Result** 6.00 to 7.00

* * *

Molecular target: IL-17A/A (Homo sapiens, UniProt Q16552)
Experiment: IL-17A/A HEK-Blue cell assay (SEAP reporter)
Conditions: HEK-Blue IL-17A reporter cells, IL17A/A 5 ng/mL, 20 hours, SEAP read at A630; read-out: HEK-Blue IL17AA (IC50 for IL-17A/A inhibition)
measure: IC50

molecule	endpointResult
CCn1nccc1C(=O)N[C@H](c1cn2nc(CC3C[C@@H](C(F)(F)F)CNC3=O)cnc2n1)C1CCC(F)(F)CC1 (stereo partly drawn) [Compound 24]	100 to 1000 nM

**Query** Return reported IC50. Input molecule: `CCc1nonc1C(=O)N[C@H](c1cn2nc(C[C@H]3C[C@@H](C(F)(F)F)CNC3=O)c(C3CCOCC3)nc2n1)[C@H]1C[C@H](C2CC2)C1`
**Result** < 100 nM

**Query** Give IC50 for `Cc1nonc1C(=O)N[C@H](c1cn2nc(C[C@H]3C[C@@H](C(F)(F)F)CNC3=O)c(N3CCN(C)C4(CC4)C3)nc2n1)C1CCC(F)(F)CC1`
**Result** < 100 nM

* * *

Reported pIC50 by item:
Biological target: IL-17A/A (Homo sapiens, UniProt Q16552)
Sequence (Q16552 24-155): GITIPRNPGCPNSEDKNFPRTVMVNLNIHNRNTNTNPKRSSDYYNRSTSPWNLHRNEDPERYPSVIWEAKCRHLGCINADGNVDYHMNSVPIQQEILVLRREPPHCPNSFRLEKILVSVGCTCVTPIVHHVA
Assay: IL-17A/A HEK-Blue cell assay (SEAP reporter)
Details: HEK-Blue IL-17A reporter cells, IL17A/A 5 ng/mL, 20 hours, SEAP read at A630; read-out: HEK-Blue IL17AA (IC50 for IL-17A/A inhibition)
pIC50: −log10 of the molar value.

Completed entries (count: 5):
compound	experimentalSystem	endpointResult
CCn1ncnc1C(=O)N[C@H](c1cn2nc(C[C@H]3C[C@@H](C(F)(F)F)CNC3=O)c(C3CCOCC3)nc2n1)C1CCCC(F)(F)C1 (stereo in doubt)	IL-17A/A (Homo sapiens, UniProt Q16552)	> 7.00
CCn1nccc1C(=O)N[C@H](c1cn2nc(CC3C[C@@H](C(F)(F)F)CNC3=O)c(N3CCOCC3)nc2n1)[C@H]1CC[C@H](C)CC1 (stereo partly drawn) [Compound 58]	IL-17A/A (Homo sapiens, UniProt Q16552)	> 7.00
CCn1nccc1C(=O)N[C@H](c1cn2nc(C[C@H]3C[C@@H](C(F)(F)F)CNC3=O)c(C3CCCOC3)nc2n1)[C@H]1CCCC(F)(F)C1 (single isomer, unassigned) [Compound 68]	IL-17A/A (Homo sapiens, UniProt Q16552)	> 7.00
CCn1nccc1C(=O)N[C@H](c1cn2nc(C[C@H]3C[C@@H](C(F)(F)F)CNC3=O)c(C3CCS(=O)(=O)CC3)nc2n1)C1CCC(F)(F)CC1	IL-17A/A (Homo sapiens, UniProt Q16552)	> 7.00
CCn1nccc1C(=O)N[C@H](c1cn2nc(CC3C[C@H](C(F)(F)F)CNC3=O)cnc2n1)C1CCC(F)(F)CC1 (stereo partly drawn)	IL-17A/A (Homo sapiens, UniProt Q16552)	6.00 to 7.00

Next compound, pIC50 to be filled in.
**Query** # return pIC50 of `CCn1nncc1C(=O)N[C@H](c1cn2nc(C[C@H]3C[C@@H](C(F)(F)F)CNC3=O)c(C3CCOCC3)nc2n1)C1CCC(F)(F)CC1` (system: IL-17A/A (Homo sapiens, UniProt Q16552))
**Result** > 7.00
